Target: UniProtKB Q9BY41
Sequence (Q9BY41 whole entry): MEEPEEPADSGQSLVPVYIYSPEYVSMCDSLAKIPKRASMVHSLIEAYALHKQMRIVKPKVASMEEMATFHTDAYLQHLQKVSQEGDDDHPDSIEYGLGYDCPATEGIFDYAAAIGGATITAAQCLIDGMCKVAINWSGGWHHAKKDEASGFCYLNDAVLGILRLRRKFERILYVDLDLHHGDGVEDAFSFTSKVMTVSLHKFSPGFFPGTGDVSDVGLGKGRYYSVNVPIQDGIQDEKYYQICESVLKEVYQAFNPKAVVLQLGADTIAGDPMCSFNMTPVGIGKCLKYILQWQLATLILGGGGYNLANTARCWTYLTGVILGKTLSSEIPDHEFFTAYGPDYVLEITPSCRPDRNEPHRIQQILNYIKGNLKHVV
Test: Inhibition of C-terminal His-tagged full-length recombinant human HDAC8 (1 to 377 residues) expressed in Sf9 insect cells using a fluorogenic substrate preincubated for 30 mins followed by substrate addition measured after 30 mins by fluorescence based assay
Observed Property: IC50 (nM)
State the answer as a number, implicitly in nM.

I would be grateful if you could share the reported IC50 for CC1(C)c2ccccc2N(Cc2ccc(C(=O)NO)cc2)C1c1cccnc1 (configuration not stated) . 2200

---

Reported values of IC50 for individual entries
target: Histone deacetylase 1 (Homo sapiens, UniProt Q13547); experiment: Inhibition of C-terminal 6xHis-tagged full-length recombinant human HDAC1 (1 to 482 residues) expressed in Sf9 insect cells using a fluorogenic substrate preincubated for 30 mins followed by substrate addition measured after 30 mins by fluorescence based assay
Sequence (Q13547 whole entry, the tested form may be a part): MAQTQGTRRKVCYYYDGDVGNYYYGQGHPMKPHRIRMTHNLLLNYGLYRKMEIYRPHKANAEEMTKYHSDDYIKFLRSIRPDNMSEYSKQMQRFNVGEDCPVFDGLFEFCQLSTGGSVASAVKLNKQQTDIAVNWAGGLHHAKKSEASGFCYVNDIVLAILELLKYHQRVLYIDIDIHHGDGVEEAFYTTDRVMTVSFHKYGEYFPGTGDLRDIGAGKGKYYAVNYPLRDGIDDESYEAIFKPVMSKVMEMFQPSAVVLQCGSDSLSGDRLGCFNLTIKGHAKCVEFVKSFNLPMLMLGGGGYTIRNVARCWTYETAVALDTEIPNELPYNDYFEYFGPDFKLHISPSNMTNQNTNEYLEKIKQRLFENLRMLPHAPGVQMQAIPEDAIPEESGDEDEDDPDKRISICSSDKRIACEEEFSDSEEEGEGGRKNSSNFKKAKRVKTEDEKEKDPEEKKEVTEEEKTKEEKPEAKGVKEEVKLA

1. Cn1c2c(c3ccccc31)CN(C(=O)NCc1ccc(C(=O)NO)cc1)CC2    > 10 µM

I would be grateful if you could share the reported IC50 for CC1(C)c2ccccc2N(Cc2ccc(C(=O)NO)cc2)C1c1cccnc1 (stereo not drawn) . 5.42 µM

// same read-out, input: Cn1c2c(c3ccccc31)CN(Cc1ccc(C(=O)NO)cc1)CC2 > 10 µM
